These measurements were taken from patent US12721838B2.

# system: Trib2-Luciferase (Luc-Trib2) fusion (Homo sapiens)
# Sequence (Q92519 with tags, fused parts or gaps): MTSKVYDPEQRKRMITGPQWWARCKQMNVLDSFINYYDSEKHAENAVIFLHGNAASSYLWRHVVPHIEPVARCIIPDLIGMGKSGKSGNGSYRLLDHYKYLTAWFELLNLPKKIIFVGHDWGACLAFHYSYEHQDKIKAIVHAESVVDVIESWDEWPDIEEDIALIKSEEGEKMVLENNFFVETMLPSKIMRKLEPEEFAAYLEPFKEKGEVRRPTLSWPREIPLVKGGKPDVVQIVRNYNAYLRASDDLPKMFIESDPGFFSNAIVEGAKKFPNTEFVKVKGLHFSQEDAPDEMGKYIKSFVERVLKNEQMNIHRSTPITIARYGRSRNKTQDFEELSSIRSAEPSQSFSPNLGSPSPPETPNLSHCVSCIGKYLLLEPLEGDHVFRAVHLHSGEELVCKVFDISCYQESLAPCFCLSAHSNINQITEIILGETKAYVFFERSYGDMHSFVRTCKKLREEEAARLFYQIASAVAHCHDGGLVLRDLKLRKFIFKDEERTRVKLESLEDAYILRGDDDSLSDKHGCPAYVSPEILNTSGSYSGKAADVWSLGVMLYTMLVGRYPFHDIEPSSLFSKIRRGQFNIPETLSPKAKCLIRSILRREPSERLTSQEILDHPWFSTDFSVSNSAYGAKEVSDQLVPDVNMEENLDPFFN
# experimentSummary: cell-based
# conditionInfo: HFF, read-out: Luciferase activity (%)
Output t for activity at 10 µM not less than 90%; output f otherwise.

# example entries with known answers
stdin: Does the molecule `CC1(C)CCC(C)(C)c2cc(NC(=O)c3ccc(C(=O)O)cc3)ccc21` have recorded activity at 10 µM that is 90% or more?
stdout: t

stdin: Does the molecule COc1cc(N)c(Cl)cc1C(=O)NC1CCN(Cc2ccccc2)CC1 [Clebopride] have recorded activity at 10 µM that is 90% or more?
stdout: t

stdin: Does the molecule `NCCC[C@H](NC(=O)[C@@H]1CCCN1C(=O)[C@@H]1CSSC[C@H](N)C(=O)N[C@@H](Cc2ccc(O)cc2)C(=O)N[C@@H](Cc2ccccc2)C(=O)N[C@@H](CCC(N)=O)C(=O)N[C@@H](CC(N)=O)C(=O)N1)C(=O)NCC(N)=O` have recorded activity at 10 µM that is 90% or more?
stdout: f

stdin: Does the molecule `CN(C)C(=O)Oc1ccc[n+](C)c1` have recorded activity at 10 µM that is 90% or more?
stdout: f

More entries:
stdin: Does the molecule `CN(C)c1cc(NC(=O)CNC(C)(C)C)c(O)c2c1C[C@H]1C[C@H]3[C@H](N(C)C)C(O)=C(C(N)=O)C(=O)[C@@]3(O)C(O)=C1C2=O` have recorded activity at 10 µM that is 90% or more?
stdout: f

stdin: Does the molecule `CC[C@H]1OC(=O)[C@H](C)[C@@H](O[C@H]2C[C@@](C)(OC)[C@@H](O)[C@H](C)O2)[C@H](C)[C@@H](O[C@@H]2O[C@H](C)C[C@H](N(C)C)[C@H]2O)[C@](C)(O)C[C@@H](C)[C@@H]2N[C@@H](COCCOC)O[C@H]([C@H]2C)[C@]1(C)O` have recorded activity at 10 µM that is 90% or more?
stdout: t

stdin: Does the molecule `CS(=O)(=O)OCCCCOS(C)(=O)=O` have recorded activity at 10 µM that is 90% or more?
stdout: t

stdin: Does the molecule `CN1CCC(=C2c3ccccc3CCn3c(C=O)cnc32)CC1` have recorded activity at 10 µM that is 90% or more?
stdout: t

stdin: Does the molecule O=C(Nc1ccc([N+](=O)[O-])cc1Cl)c1cc(Cl)ccc1O [Niclosamide] have recorded activity at 10 µM that is 90% or more?
stdout: f

stdin: Does the molecule CCOC(=O)OC(C)OC1=C(C(=O)Nc2ccccn2)N(C)S(=O)(=O)c2ccccc21 (stereo not shown) have recorded activity at 10 µM that is 90% or more?
stdout: f

stdin: Does the molecule `CCOC(=O)N[C@@H]1CC[C@@H]2[C@@H](C1)C[C@H]1C(=O)O[C@H](C)[C@H]1[C@H]2/C=C/c1ccc(-c2cccc(F)c2)cn1` have recorded activity at 10 µM that is 90% or more?
stdout: f

stdin: Does the molecule `c1cc(CN2CCCNCCNCCCNCC2)ccc1CN1CCCNCCNCCCNCC1` have recorded activity at 10 µM that is 90% or more?
stdout: t

stdin: Does the molecule CN1C(=O)COc2c(C(=O)NC3CN4CCC3CC4)cc(Cl)cc21 (stereo not shown) have recorded activity at 10 µM that is 90% or more?
stdout: t
